Target Desc: Solute carrier family 15 member 1 (Rattus norvegicus)
Sequence (P51574 whole entry): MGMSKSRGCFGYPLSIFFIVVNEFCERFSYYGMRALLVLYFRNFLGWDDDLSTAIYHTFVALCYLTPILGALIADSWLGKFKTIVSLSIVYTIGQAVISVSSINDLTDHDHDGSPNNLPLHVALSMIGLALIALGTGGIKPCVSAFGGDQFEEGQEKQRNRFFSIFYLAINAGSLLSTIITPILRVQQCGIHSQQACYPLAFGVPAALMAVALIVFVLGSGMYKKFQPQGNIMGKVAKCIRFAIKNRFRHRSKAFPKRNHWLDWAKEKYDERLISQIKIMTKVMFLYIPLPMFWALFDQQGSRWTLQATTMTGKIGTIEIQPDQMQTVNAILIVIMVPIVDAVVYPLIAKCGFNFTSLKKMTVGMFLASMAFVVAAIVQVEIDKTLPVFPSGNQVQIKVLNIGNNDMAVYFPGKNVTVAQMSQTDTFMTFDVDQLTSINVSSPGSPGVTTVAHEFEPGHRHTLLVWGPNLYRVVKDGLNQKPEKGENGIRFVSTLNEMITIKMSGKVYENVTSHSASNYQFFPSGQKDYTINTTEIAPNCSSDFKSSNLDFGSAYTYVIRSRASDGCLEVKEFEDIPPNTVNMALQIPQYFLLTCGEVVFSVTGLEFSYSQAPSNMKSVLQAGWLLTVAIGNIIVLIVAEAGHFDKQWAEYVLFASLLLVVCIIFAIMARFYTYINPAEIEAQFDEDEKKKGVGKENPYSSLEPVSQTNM
Test: Substrate activity in PEPT1 in Sprague-Dawley rat jejunum assessed as fold increase in effective permeability at 5 mM measured up to 60 mins in presence of Gly-Sar by HPLC analysis relative to its enantiomers
Assay type: ADME, tissue-based
Experimental Setup: 1 h, 5000 µM
Recorded Endpoint: fold change (FC)

O=C(O)[C@H](CO)NC(=O)[C@@H]1C[C@@H](O)CN1 : 7.8
O=C(N[C@H](CO)C(=O)O)[C@@H]1C[C@@H](O)CN1 : 4.6

(P) O=C(O)[C@H](CO)NC(=O)[C@H]1C[C@H](O)CN1
(Q) O=C(O)[C@H](CO)NC(=O)[C@@H]1C[C@H](O)CN1
Incoming: Between these two entries, P and Q , state which has the higher fold change (FC). Answer by stating the label of the chosen item.
Outgoing: P
